Data origin: patent US20240376090A1

Biological target: 5-HT2C receptor (Homo sapiens (Human))
Sequence (P28335 33-458): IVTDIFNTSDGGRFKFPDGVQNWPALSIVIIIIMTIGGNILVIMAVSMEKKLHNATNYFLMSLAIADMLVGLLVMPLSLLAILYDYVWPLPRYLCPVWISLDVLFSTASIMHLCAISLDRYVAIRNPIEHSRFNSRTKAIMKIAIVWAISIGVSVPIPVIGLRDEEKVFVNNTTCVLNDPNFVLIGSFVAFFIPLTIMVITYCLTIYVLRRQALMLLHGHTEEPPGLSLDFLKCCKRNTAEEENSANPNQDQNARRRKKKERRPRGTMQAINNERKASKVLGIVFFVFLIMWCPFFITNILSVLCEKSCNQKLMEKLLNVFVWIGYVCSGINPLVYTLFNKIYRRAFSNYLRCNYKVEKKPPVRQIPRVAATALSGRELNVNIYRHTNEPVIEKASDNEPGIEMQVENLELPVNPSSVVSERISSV
Test: HTRF IP-One antagonist assay, 5-HT2C
Settings: HEK293 cells stably expressing recombinant human receptor; IP accumulation with 80 nM 5-HT
Measurement Name: IC50

Problem: Bench note: what IC50 did COc1cccc(C(=O)Nc2ccc(OC[C@H]3CCCCN3)c(-c3c(C)noc3C)c2)c1 [Compound 220] show?
Solution: ≥ 100 µM

Problem: Bench note: what IC50 did Cc1noc(C)c1-c1cc(NC(=O)c2ccc(F)cc2)ccc1OC1CNC1 [Compound 242] show?
Solution: 4.92 µM

Problem: Bench note: what IC50 did COCCNCCOc1ccc(NC(=O)C2CC2)cc1-c1c(C)noc1C [Compound 197] show?
Solution: ≥ 100 µM

Problem: Bench note: what IC50 did Cc1noc(C)c1-c1cc(NC(=O)c2c(F)cnn2C)ccc1OCCN1CCCC1 [Compound 114] show?
Solution: ≥ 100 µM

====

Biological target: 5-HT2A receptor (Homo sapiens (Human), UniProt P28223)
Sequence (P28223 whole entry): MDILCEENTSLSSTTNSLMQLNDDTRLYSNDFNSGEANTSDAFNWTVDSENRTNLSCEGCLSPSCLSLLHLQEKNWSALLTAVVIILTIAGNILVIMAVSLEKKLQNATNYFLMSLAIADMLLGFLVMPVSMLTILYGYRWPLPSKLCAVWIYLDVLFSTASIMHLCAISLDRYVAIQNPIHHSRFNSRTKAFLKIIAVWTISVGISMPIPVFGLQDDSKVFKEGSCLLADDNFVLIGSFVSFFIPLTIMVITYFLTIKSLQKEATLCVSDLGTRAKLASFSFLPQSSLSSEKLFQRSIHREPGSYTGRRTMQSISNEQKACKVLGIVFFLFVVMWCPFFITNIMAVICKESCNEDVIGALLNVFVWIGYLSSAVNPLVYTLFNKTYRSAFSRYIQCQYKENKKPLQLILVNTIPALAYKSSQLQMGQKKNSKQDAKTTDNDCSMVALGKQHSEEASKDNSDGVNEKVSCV
Experiment: Radioligand binding assay ([3H]5-HT competition), 5-HT2A
Conditions: [3H]5-HT radioligand, membranes of HEK293 cells expressing recombinant 5-HT2A; Ki from IC50 by Cheng-Prusoff; read-out: 5-HT2A serotonin binding Ki value
pKi: −log10 of the molar value.
Measurement Name: pKi

Solved entries (count: 10):
>  <Molecule>
Cc1noc(C)c1-c1cc(NC(=O)c2ccnn2C)ccc1OC[C@H]1CCCCN1 [Compound 177]

>  <Assay Result>
8.37

$$$$
>  <Molecule>
Cc1ncsc1C(=O)Nc1ccc(OCCN2CCCC2)c(-c2c(C)noc2C)c1 [Compound 109]

>  <Assay Result>
8.42

$$$$
>  <Molecule>
Cc1cnn(C)c1C(=O)Nc1ccc(OC[C@H]2CCCCN2)c(-c2c(C)noc2C)c1 [Compound 208]

>  <Assay Result>
8.02

$$$$
>  <Molecule>
Cc1noc(C)c1-c1cc(NC(=O)C2CC2)ccc1OC[C@H]1CCCCN1 [Compound 169]

>  <Assay Result>
8.67

$$$$
>  <Molecule>
Cc1noc(C)c1-c1cc(NC(=O)C2CC2)ccc1OCCN1CCN2C(=O)CCC2C1 (stereo not drawn) [Compound 138]

>  <Assay Result>
7.61

$$$$
>  <Molecule>
Cc1noc(C)c1-c1cc(NC(=O)C2CC2)ccc1OCCN1C[C@H]2C[C@H]2C1 [Compound 164]

>  <Assay Result>
7.86

$$$$
>  <Molecule>
Cc1nc(C(C)C)sc1C(=O)Nc1ccc(OC[C@H]2CCCCN2)c(-c2c(C)noc2C)c1 [Compound 231]

>  <Assay Result>
7.77

$$$$
>  <Molecule>
COC1CCN(CCOc2ccc(NC(=O)C3CC3)cc2-c2c(C)noc2C)CC1 [Compound 143]

>  <Assay Result>
7.08

$$$$
>  <Molecule>
Cc1noc(C)c1-c1cc(NC(=O)c2c(F)cnn2C)ccc1OCCN1CCCC1 [Compound 114]

>  <Assay Result>
8.59

$$$$
>  <Molecule>
Cc1noc(C)c1-c1cc(NC(=O)C2CC2)ccc1O[C@@H]1CCCNC1 [Compound 179]

>  <Assay Result>
7.07

$$$$

1: COc1cccc(C(=O)Nc2ccc(OC3CNC3)c(-c3c(C)noc3C)c2)c1 [Compound 244]
2: Cc1noc(C)c1-c1cc(NC(=O)[C@H]2C[C@H]2F)ccc1OC[C@H]1CCCCN1 [Compound 191]
3: Cc1noc(C)c1-c1cc(NC(=O)c2ccc(F)cc2)ccc1OC[C@H]1CCCCN1 [Compound 219]
Problem: Returns the items ordered by pKi, from maximum to minimum. Answer by listing the labels in the order asked for.
Solution: 1, 3, 2

a: Cc1noc(C)c1-c1cc(NC(=O)[C@@H]2C[C@H]2F)ccc1OC[C@H]1CCCCN1 [Compound 190]
b: Cc1noc(C)c1-c1cc(NC(=O)c2c(F)cnn2C)ccc1OC[C@H]1CCCCN1 [Compound 230]
Problem: Would you let me know which has the greater pKi value, a or b ? Your choice should be expressed through its label.
Solution: a
